Target: IL17-RE-IL-17C (Homo sapiens, UniProt Q8NFR9+Q9P0M4)
Sequence (Q9P0M4 whole entry): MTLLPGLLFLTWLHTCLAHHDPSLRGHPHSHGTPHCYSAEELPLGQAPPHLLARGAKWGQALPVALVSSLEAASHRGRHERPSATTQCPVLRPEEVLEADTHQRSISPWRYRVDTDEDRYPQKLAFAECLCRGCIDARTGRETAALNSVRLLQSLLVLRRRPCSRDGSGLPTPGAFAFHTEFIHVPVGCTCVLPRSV
Sequence (Q8NFR9 whole entry): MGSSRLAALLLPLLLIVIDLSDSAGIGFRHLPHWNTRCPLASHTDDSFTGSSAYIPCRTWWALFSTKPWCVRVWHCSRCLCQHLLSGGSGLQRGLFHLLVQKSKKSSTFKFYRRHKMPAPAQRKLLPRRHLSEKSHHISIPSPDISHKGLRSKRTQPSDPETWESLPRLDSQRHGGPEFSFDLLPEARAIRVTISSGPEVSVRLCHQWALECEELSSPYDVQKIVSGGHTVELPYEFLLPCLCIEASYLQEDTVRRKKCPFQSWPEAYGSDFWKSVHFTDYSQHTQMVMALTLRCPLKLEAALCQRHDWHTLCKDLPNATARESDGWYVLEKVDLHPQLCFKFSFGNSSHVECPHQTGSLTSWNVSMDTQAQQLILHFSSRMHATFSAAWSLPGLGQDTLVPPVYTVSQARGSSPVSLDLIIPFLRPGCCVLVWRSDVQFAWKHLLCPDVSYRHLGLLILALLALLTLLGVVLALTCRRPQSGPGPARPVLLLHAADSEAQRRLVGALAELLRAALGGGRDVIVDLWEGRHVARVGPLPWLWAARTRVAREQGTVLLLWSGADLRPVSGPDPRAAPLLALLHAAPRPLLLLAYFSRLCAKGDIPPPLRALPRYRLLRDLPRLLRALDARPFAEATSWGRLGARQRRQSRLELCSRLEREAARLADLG
Assay: Inhibition of IL-17C/IL-17RE interaction (unknown origin) incubated for 1.5 hrs by ELISA method
Positions of bridges follow the written chain, without caps; N, C: chain ends. Residues, ends and D or L forms follow the SMILES beside them.
parameter_measured: IC50

{"columns": ["compound", "measurement"],
 "data": [
  ["CC[C@H](C)[C@@H]1NC(=O)[C@H](Cc2c[nH]c3ccccc23)NC(=O)[C@H](CC(N)=O)NC(=O)[C@H](Cc2ccc(O)cc2)NC(=O)[C@H](Cc2ccc(O)cc2)NC(=O)CSC[C@@H](C(=O)NCC(N)=O)NC(=O)[C@H](CO)NC(=O)[C@H]([C@@H](C)O)NC(=O)[C@H](CC(N)=O)NC(=O)[C@H](Cc2ccc(O)cc2)NC(=O)[C@H](Cc2ccc(O)cc2)NC(=O)[C@H](Cc2ccccc2)NC(=O)[C@H](Cc2c[nH]cn2)NC(=O)[C@H](CC(=O)O)NC1=O ({CH2CO}-YYNWIDHFYYNTSCG-NH2; thioether N-14)", "> 30 µM"],
  ["CC(C)C[C@@H]1NC(=O)[C@H](Cc2c[nH]c3ccccc23)NC(=O)[C@H](CO)NC(=O)[C@H](CC(=O)O)NC(=O)[C@H](Cc2ccccc2)NC(=O)[C@H](Cc2c[nH]cn2)NC(=O)[C@H](Cc2ccc(O)cc2)NC(=O)CSC[C@@H](C(=O)NCC(N)=O)NC(=O)[C@H](CCCCN)NC(=O)[C@H](CC(C)C)NC(=O)[C@H](CCCNC(=N)N)NC(=O)[C@H](CCCCN)NC(=O)[C@H](C)NC1=O ({CH2CO}-YHFDSWLAKRLKCG-NH2; thioether N-13)", "> 30 µM"],
  ["CC[C@H](C)[C@@H]1NC(=O)[C@H](CO)NC(=O)[C@H](Cc2ccc(O)cc2)NC(=O)[C@H]([C@@H](C)CC)NC(=O)[C@H]([C@@H](C)O)NC(=O)[C@H](CC(C)C)NC(=O)[C@H](CC(=O)O)NC(=O)[C@H]([C@@H](C)CC)NC(=O)[C@H](C(C)C)NC(=O)[C@H](Cc2ccc(O)cc2)NC(=O)[C@H](CC(=O)O)NC(=O)[C@H](CCCCN)NC(=O)[C@H](Cc2ccc(O)cc2)NC(=O)CSC[C@@H](C(=O)NCC(N)=O)NC1=O ({CH2CO}-YKDYVIDLTIYSICG-NH2; thioether N-14)", "> 30 µM"]
]}
